Recorded values, source patent US20140087995A1.

Target: T1, human calcitonin receptor (human, UniProt P30988 25-474)
T1 construct: whole, on cells; Cell membranes of a stably transfected BHK cell line (Assay VII); also called hCTR; hCT
T1 sequence (looked up): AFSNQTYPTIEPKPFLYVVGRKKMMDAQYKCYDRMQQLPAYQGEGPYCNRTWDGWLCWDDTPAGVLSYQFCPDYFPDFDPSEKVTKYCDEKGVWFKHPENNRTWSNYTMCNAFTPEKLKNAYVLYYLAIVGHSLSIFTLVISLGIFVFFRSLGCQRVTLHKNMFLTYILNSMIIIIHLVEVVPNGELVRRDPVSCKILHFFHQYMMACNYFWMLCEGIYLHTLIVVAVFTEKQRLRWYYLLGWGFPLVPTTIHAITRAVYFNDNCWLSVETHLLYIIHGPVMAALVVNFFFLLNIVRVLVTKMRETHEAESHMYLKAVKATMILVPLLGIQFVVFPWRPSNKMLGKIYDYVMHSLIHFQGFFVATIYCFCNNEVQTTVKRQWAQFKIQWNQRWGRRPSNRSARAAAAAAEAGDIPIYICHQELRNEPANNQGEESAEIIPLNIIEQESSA
Experiment: ratio IC50 human calcitonin receptor / IC50 human amylin receptor
ASSAY READOUT: Ratio hCT/hAmylin binding
Answer with a number only.

BINDER	Ratio hCT/hAmylin binding
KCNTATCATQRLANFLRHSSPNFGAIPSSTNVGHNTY (C20 diacid-gGlu on alpha-amino of the N-terminal residue; Cys2-Cys7 disulfide; C-terminal amide (as human amylin), Acylated analogue of human amylin; also called compound 40) [N^α1-[(4S)-4-carboxy-4-(19-carboxynonadecanoylamino)butanoyl]-[Arg17,Pro21,Pro27,His34]-h-amylin]	31.1

Could you tell me which Ratio hCT/hAmylin binding is on file for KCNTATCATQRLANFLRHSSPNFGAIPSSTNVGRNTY (C20 diacid-gGlu on alpha-amino of the N-terminal residue; Cys2-Cys7 disulfide; C-terminal amide (as human amylin), Acylated analogue of human amylin; also called compound 39) [N^α1-[(4S)-4-carboxy-4-(19-carboxynonadecanoylamino)butanoyl]-[Arg17,Pro21,Pro27,Arg34]-h-amylin] ?
29

Could you tell me which Ratio hCT/hAmylin binding is on file for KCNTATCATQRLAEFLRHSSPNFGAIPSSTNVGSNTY (C20 diacid-gGlu-2xOEG on alpha-amino of the N-terminal residue; Cys2-Cys7 disulfide; C-terminal amide (as human amylin), Acylated analogue of human amylin; also called compound 19) ?
36.7
